Test system: K4 kissing-loop RNA reporter;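 further: bound reporter read as fluorescence of individual clusters on recovered sequencing chips by microscopy, with normalized cluster intensities fitted with a binding model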
MEASUREMENT NOTES: apparent KD of K4 kissing-loop reporter; higher = weaker reporter binding
CONDITION NOTES: Eterna round: R107; input ligand: none
The reader will find reported apparent KD of K4 kissing-loop reporter values listed item by item below.

{"MACROMOLECULE SEQUENCE": "UUUAAACAUAGUGAUGUUAUGUAACAAUGACGAGGACCGGUACGGCCGCCACUCGAGAGAGAUAAUGAUAAAAUAAAUAAUUUUC [#09 K4 Tryptophan A Same State]", "apparent KD of K4 kissing-loop reporter": "118 nM"}
{"MACROMOLECULE SEQUENCE": "AGAGUUAAUUAGUCUUUUUUCACAUUAAGUCAGGAUAUCGUAUUUUCGAGAAGGGACACAUGCUAGUGAUGUUAGCUAUUUCUCA [JR_Nu3_ExcFMNA_Sub020]", "apparent KD of K4 kissing-loop reporter": "67.5 nM"}
{"MACROMOLECULE SEQUENCE": "AAGAAUGCAGGAAGGAGCGGCGGACGGAGUGAUGUUCCGGCUAGUGAUGUUAGCAAACACCGCCAGGUAGGUCGCCUGCUGCCCU [Same State Arginine B GF 6]", "apparent KD of K4 kissing-loop reporter": "171 nM"}
